- TARGET_OR_SYSTEM: cloned rat μ receptor (Rattus norvegicus)
- Construct: expressed in transfected cells; host or cells: COS-7 (transient)
- Sequence (P33535 whole entry): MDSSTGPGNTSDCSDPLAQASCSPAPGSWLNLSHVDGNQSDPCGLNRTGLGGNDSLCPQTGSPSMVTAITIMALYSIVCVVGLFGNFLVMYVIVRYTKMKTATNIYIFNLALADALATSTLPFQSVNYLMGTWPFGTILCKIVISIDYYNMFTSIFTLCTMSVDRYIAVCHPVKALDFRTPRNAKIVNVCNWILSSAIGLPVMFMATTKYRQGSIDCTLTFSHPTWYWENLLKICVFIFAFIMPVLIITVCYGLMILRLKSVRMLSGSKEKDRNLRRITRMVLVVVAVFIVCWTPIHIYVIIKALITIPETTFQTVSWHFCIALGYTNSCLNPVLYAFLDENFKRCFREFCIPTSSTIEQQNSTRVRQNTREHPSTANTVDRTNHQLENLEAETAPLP
- PROCEDURE_DETAILS: biochemical
- Format: binding
QUANTITY_NAME: pKi
Answers are plain numbers, as −log10 of the molar value.

CC[C@]12CCN(CC3CC3)[C@H](C(=O)c3ccc(O)cc31)[C@@H]2C [Ethylketocyclazocine] = 8.51
CCC12CCN(CC3(O)CC3)C(Cc3ccc(O)cc31)C2(C)C (racemic) [Bremazocine] = 9.12
C=CCN1CC[C@]23c4c5ccc(O)c4O[C@H]2[C@@H](O)C=C[C@H]3[C@H]1C5 [nalorphine] = 9.01

Now turn to the next compound.
(Q) For CC(C)=CCN1CCC2(C)c3cc(O)ccc3CC1C2C (stereo not shown) [pentazocine] , what is its reported pKi?
(A) 8.24
